Target: MAL^TIR (Homo sapiens, UniProt P58753)
Construct: MAL (residues 79–221); 6xHis; made in house; host or cells: E. coli BL21 (DE3)
Sequence (P58753 79-221): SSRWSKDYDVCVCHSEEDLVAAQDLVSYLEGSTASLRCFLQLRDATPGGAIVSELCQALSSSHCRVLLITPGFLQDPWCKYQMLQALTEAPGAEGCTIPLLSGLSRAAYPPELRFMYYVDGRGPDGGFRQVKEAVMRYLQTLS
Test: T‐Surf phage library (P8 and P3) selection against MAL^TIR, four rounds, NGS read counts
Assay type: binding
Conditions: P8_MAL pool: P8 T-Surf phage library, 4th round of selection against MAL TIR, share of NGS reads
Method: T‐Surf libraries were screened against the immobilized TIR domains of two major human TLR adaptor proteins, MAL^TIR and MyD88^TIR, allowing cross‐species selection of TIR‐binding motifs with 190 946 TIR‐derived peptides in a single binding assay (Scheme 1). Enriched phage pools from the fourth round of selection were analyzed using NGS after barcoding the peptide‐coding regions of the phage pools. […]
Quick reference for Population among some substances
Number only, in %; omit the unit.

Below, 5 substances whose answers are already recorded.
>>> reported("WFYERLVSLILRDTKX")
0.0034
>>> reported("AFFWEQLKSVLGNPTM")
0.00371
>>> reported("WFYERLVSLILRDTKM")
0.00402
>>> reported("AFLYTFLINRTHPTNF")
0.0034
>>> reported("AFFGAQLKSVLGNPTM")
0.0034

// recorded Population for WFYERLVSLILRDTIV : 0.00309

// recorded Population for AFLYTFLINLTHPSNF : 0.00309

// recorded Population for ASLYTFLINLTHPTNF : 0.0034

// recorded Population for WFYERLVSLILRDSKV : 0.00309

// recorded Population for AFFWAQLKSELGNPTM : 0.00463

// recorded Population for WFYERLASLILRDTKV : 0.0034

// recorded Population for AFLYTFLINLTRPTNF : 0.0034

// recorded Population for WFYERLLSLILRDTKV : 0.00278

// recorded Population for AFLYTFLINLTIRPIX : 0.00371

// recorded Population for AFLGHLYNALVQAGIH : 0.00371

// recorded Population for WFYERLVSLILRYTKV : 0.00309

// recorded Population for AFLYTFLNNLTHPTNF : 0.00309

// recorded Population for YFLHFLLFSRPETVYI : 0.00309

// recorded Population for RNFVAYLFQALANKGI : 0.0034
